assay_method_text: Caco-2 assay
Type: in vitro ADME
assay_conditions: human, apical to basolateral, 10 μM compound, pH 7.4, read-out: Caco PappAB
Listing: Papp A→B at 90 min, 10 μM of selected compounds
# number only, unit nm/s dropped from output

C=C(F)C(=O)N1[C@@H](C)CN(c2cc(O[C@@H](C)[C@@H]3CCCN3C)nc(-c3noc4c3CCC[C@@]43CCCc4sc(N)c(C#N)c43)n2)C[C@@H]1C
110
C=C(F)C(=O)N1[C@@H](C)CN(c2cc(O[C@@H](C)[C@@H]3CCCN3C)nc(-c3onc4c3CCC[C@@]43CCCc4sc(N)c(C#N)c43)n2)C[C@@H]1C
44
C=CC(=O)N1[C@@H](C)CN(c2cc(-c3noc4c3CCC[C@@]43CCCc4sc(N)c(C#N)c43)nc(O[C@@H](C)[C@@H]3CCCN3C)n2)C[C@@H]1C
31
COC/C=C/C(=O)N1[C@@H](C)CN(c2cc(-c3noc4c3CCC[C@@]43CCCc4sc(N)c(C#N)c43)nc(O[C@@H](C)[C@@H]3CCCN3C)n2)C[C@@H]1C
24

Field request: Papp A→B at 90 min, 10 μM | item: `C[C@H](Oc1cc(N2C[C@H](C)N(C(=O)/C=C/CF)[C@@H](C)C2)nc(-c2noc3c2CCC[C@@]32CCCc3sc(N)c(C#N)c32)n1)[C@@H]1CCCN1C`
8

---

Parameter: log10 of GI50. Scope: all listed entries.
experimental_target: Ba/F3 KRASG12C cells (Homo sapiens, UniProt P01116, G12C, cells depend on it)
Sequence (P01116 whole entry G12C): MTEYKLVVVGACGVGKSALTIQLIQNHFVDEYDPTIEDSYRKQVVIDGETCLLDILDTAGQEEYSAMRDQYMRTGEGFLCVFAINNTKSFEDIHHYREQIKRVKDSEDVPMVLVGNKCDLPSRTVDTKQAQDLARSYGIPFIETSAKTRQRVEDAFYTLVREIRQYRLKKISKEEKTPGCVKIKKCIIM
assay_method_text: Ba/F3 cell model proliferation assay (AlamarBlue, 72 h)
Assay type: cell-based
assay_conditions: without IL-3, read-out: IC50 Ba/F3 KRASG12C
Plainly stated, the numbers are log10 of GI50 given in nM.

Completed entries (count: 3):
C=C(F)C(=O)N1[C@@H](C)CN(c2cc(O[C@@H](C)[C@@H]3CCCN3C)nc(-c3noc4c3CCC[C@@]43CCCc4sc(N)c(C#N)c43)n2)C[C@@H]1C [Ib-5]
-0.30
COC/C=C/C(=O)N1[C@@H](C)CN(c2cc(-c3noc4c3CCC[C@@]43CCCc4sc(N)c(C#N)c43)nc(O[C@@H](C)[C@@H]3CCCN3C)n2)C[C@@H]1C [Ib-9]
1.18
C=CC(=O)N1CCN(c2cc(O[C@@H](C)[C@@H]3CCCN3C)nc(-c3noc4c3CCC[C@@]43CCCc4sc(N)c(C#N)c43)n2)CC12CC2 [Ib-2]
-0.52

Sample C[C@H](Oc1nc(-c2noc3c2CCC[C@@]32CCCc3sc(N)c(C#N)c32)cc(N2C[C@H](C)N(C(=O)/C=C/c3cccnc3)[C@@H](C)C2)n1)[C@@H]1CCCN1C [Ib-8] — what was its log10 of GI50?
1.40

Which log10 of GI50 is reported for this compound? C=CC(=O)N1[C@@H](C)CN(c2cc(-c3noc4c3CCC[C@@]43CCCc4sc(N)c(C#N)c43)nc(O[C@@H](C)[C@@H]3CCCN3C)n2)C[C@@H]1C [Ib-4]
-1.00

If you can, please state the reported log10 of GI50 value of C[C@H](Oc1nc(-c2noc3c2CCC[C@@]32CCCc3sc(N)c(C#N)c32)cc(N2C[C@H](C)N(C(=O)/C=C/CF)[C@@H](C)C2)n1)[C@@H]1CCCN1C [Ib-7] .
0.20

---

experimental_target: protein-protein interaction between SOS1 and KRAS G12C (Homo sapiens, UniProt P01116, C118S/C51S/C80L/G12C)
Construct: His6 (N); SOS1: in-house or Viva Biotech Ltd; host or cells: E. coli (KRAS)
Sequence (P01116 1-169 isoform P01116-2 G12C/C51S/C80L/C118S): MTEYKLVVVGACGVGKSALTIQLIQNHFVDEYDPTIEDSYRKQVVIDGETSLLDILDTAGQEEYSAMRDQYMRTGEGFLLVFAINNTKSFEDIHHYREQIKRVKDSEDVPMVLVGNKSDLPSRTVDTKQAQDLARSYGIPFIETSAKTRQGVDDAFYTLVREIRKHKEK
assay_method_text: KRAS::SOS1 AlphaScreen Binding Assay
assay_conditions: Table 20, compounds (I); 7.5 nM KRAS G12C, 10 μM GDP, 5 nM GST-SOS1
# maps each entry to its IC50
Your answer should be a plain number; it is taken to be in nM.

Solved cases (2 shown):
C[C@H](Oc1nc(-c2noc3c2CCC[C@@]32CCCc3sc(N)c(C#N)c32)cc(N2C[C@H](C)N(C(=O)/C=C/CF)[C@@H](C)C2)n1)[C@@H]1CCCN1C [Ib-7]
3.1
C=C(F)C(=O)N1[C@@H](C)CN(c2cc(O[C@@H](C)[C@@H]3CCCN3C)nc(-c3noc4c3CCC[C@@]43CCCc4sc(N)c(C#N)c43)n2)C[C@@H]1C [Ib-5]
1.6

Look up IC50 for this molecule: C=CC(=O)N1[C@@H](C)CN(c2cc(-c3noc4c3CCC[C@@]43CCCc4sc(N)c(C#N)c43)nc(O[C@@H](C)[C@@H]3CCCN3C)n2)C[C@@H]1C [Ib-4]
1.4

---

experimental_target: protein-protein interaction between SOS1 and KRAS G12C (Homo sapiens, UniProt P01116, C118S/C51S/C80L/G12C)
Construct: His6 (N); SOS1: in-house or Viva Biotech Ltd; host or cells: E. coli (KRAS)
assay_method_text: KRAS::SOS1 AlphaScreen Binding Assay
assay_conditions: Table 19, intermediates C-3/C-4; 7.5 nM KRAS G12C, 10 μM GDP, 5 nM GST-SOS1; read-out: IC50 G12C::SOS 1
Attribute: IC50

Solved cases (5 shown):
CNC1CCN(c2cc(O[C@@H](C)[C@@H]3CCCN3C)nc(-c3noc4c3CCC[C@@]43CCCc4sc(N)c(C#N)c43)n2)CC1 [C-4e]
9 nM
C[C@H](Oc1nc(-c2onc3c2CCC[C@@]32CCCc3sc(N)c(C#N)c32)cc(N2CCNC3(CC3)C2)n1)[C@@H]1CCCN1C [C-3e]
45 nM
C[C@H](Oc1cc(N2CCNCC2)nc(-c2noc3c2CCC[C@@]32CCCc3sc(N)c(C#N)c32)n1)[C@@H]1CCCN1C [C-4d]
3.2 nM
C[C@H](Oc1cc(N2CCNC3(CC3)C2)nc(-c2noc3c2CCC[C@@]32CCCc3sc(N)c(C#N)c32)n1)[C@@H]1CCCN1C [C-4b]
1.9 nM
C[C@H](Oc1cc(N2C[C@H](C)NC3(CC3)C2)nc(-c2onc3c2CCC[C@@]32CCCc3sc(N)c(C#N)c32)n1)[C@@H]1CCCN1C [C-3d]
4.1 nM

Returns the measured IC50 for the input molecule. Input: C[C@H](Oc1cc(N2CCNC3(CC3)C2)nc(-c2onc3c2CCC[C@@]32CCCc3sc(N)c(C#N)c32)n1)[C@@H]1CCCN1C [C-3b]
2.5 nM

---

assay_method_text: Metabolic (microsomal) stability assay
Assay type: in vitro ADME
assay_conditions: human liver microsomes 1 mg/mL, 1 μM compound, 37° C.; predicted clearance as percent of liver blood flow
assay_endpoint: HLM QH (%)
Express your answer in %, writing the number without its unit.

C=C(F)C(=O)N1[C@@H](C)CN(c2cc(-c3onc4c3CCC[C@@]43CCCc4sc(N)c(C#N)c43)nc(O[C@@H](C)[C@@H]3CCCN3C)n2)C[C@@H]1C
41

Which HLM QH is reported for this compound? `C=CC(=O)N1[C@@H](C)CN(c2cc(O[C@@H](C)[C@@H]3CCCN3C)nc(-c3noc4c3CCC[C@@]43CCCc4sc(N)c(C#N)c43)n2)C[C@@H]1C`
34

---

assay_method_text: Caco-2 assay
Assay type: in vitro ADME
assay_conditions: human, efflux ratio PappBA/PappAB, 10 μM compound, pH 7.4, read-out: Caco ER
assay_endpoint: efflux ratio at 90 min, 10 μM
Hey, just send me the number, nothing else.

C[C@H](Oc1nc(-c2noc3c2CCC[C@@]32CCCc3sc(N)c(C#N)c32)cc(N2C[C@H](C)N(C(=O)/C=C/CF)[C@@H](C)C2)n1)[C@@H]1CCCN1C [Ib-7]
10.4
C=CC(=O)N1CCN(c2cc(O[C@@H](C)[C@@H]3CCCN3C)nc(-c3noc4c3CCC[C@@]43CCCc4sc(N)c(C#N)c43)n2)CC12CC2 [Ib-2]
18.2

Proceed to the following item.
Could you tell me which efflux ratio at 90 min, 10 μM is on file for C=CC(=O)N1[C@@H](C)CN(c2cc(-c3noc4c3CCC[C@@]43CCCc4sc(N)c(C#N)c43)nc(O[C@@H](C)[C@@H]3CCCN3C)n2)C[C@@H]1C [Ib-4] ?
12.3

---

assay_method_text: Caco-2 assay
Type: in vitro ADME
assay_conditions: human, efflux ratio PappBA/PappAB, 10 μM compound, pH 7.4, read-out: Caco ER
assay_endpoint: efflux ratio at 90 min, 10 μM
I'd appreciate a reply containing only the number, no unit.

COC/C=C/C(=O)N1[C@@H](C)CN(c2cc(-c3noc4c3CCC[C@@]43CCCc4sc(N)c(C#N)c43)nc(O[C@@H](C)[C@@H]3CCCN3C)n2)C[C@@H]1C
7.5

efflux ratio at 90 min, 10 μM lookup needed for `C=C(F)C(=O)N1[C@@H](C)CN(c2cc(O[C@@H](C)[C@@H]3CCCN3C)nc(-c3onc4c3CCC[C@@]43CCCc4sc(N)c(C#N)c43)n2)C[C@@H]1C` , thanks.
3.6

What value of measured efflux ratio at 90 min, 10 μM is listed for `C=C(F)C(=O)N1[C@@H](C)CN(c2cc(-c3noc4c3CCC[C@@]43CCCc4sc(N)c(C#N)c43)nc(O[C@@H](C)[C@@H]3CCCN3C)n2)C[C@@H]1C` ?
1.7

// provenance: patent US20250296940A1
